Let's go through some recorded Ki values for Adenosine receptor A2a (Rattus norvegicus, UniProt P30543) together.
endpoint_name: Ki (nM)

INSERT INTO results (compound, target_system, units, numeric_readout) VALUES
  ('CCCn1c(=O)c2[nH]c(C34CC5CC(CC3C5)C4)nc2n(CCC)c1=O', 'Adenosine receptor A2a (Rattus norvegicus, UniProt P30543)', 'nM', 170),
  ('O=C(O)CCCn1nc(-c2c(-c3ccccc3)nn3ccccc23)ccc1=O', 'Adenosine receptor A2a (Rattus norvegicus, UniProt P30543)', 'nM', 1200),
  ('OC1CCC(Nc2nc(-c3ccccc3)nc3[nH]ccc23)CC1 (centres undefined)', 'Adenosine receptor A2a (Rattus norvegicus, UniProt P30543)', 'nM', 501),
  ('CCCn1c(=O)c2[nH]c(C34CCC(CCC(=O)O)(CC3)CC4)nc2n(CCC)c1=O', 'Adenosine receptor A2a (Rattus norvegicus, UniProt P30543)', 'nM', 2440);

====

Target: UniProt P25099
Sequence (P25099 whole entry): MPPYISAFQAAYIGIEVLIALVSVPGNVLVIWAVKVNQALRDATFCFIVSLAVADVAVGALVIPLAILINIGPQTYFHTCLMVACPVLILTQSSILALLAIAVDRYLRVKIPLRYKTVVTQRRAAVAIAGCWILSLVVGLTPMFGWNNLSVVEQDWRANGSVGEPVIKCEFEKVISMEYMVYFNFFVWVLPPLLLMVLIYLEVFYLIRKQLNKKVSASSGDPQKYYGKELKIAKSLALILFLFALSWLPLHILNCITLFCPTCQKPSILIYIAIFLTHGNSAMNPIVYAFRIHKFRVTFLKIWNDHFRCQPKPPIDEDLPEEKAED
Sorting guide: entries reporting Ki beneath 10 nM go in the Fulfilled pile, the rest go in the Not fulfilled pile.

INSERT INTO results (compound_structure, target_system, classification) VALUES
  ('Cc1ccc(C(=O)c2sc(Nc3ccccc3)nc2-c2ccccc2)cc1', 'UniProt P25099', 'Not fulfilled'),
  ('Cc1ccc(C(=O)c2sc(NC(=O)c3ccccc3)nc2-c2ccccc2)cc1', 'UniProt P25099', 'Fulfilled'),
  ('CCOC(=O)Nc1nc(-c2ccccc2)c(C(=O)c2ccccc2)s1', 'UniProt P25099', 'Not fulfilled'),
  ('CNc1nc(-c2ccccc2)c(C(=O)c2ccc(Cl)cc2)s1', 'UniProt P25099', 'Not fulfilled'),
  ('O=C(Nc1nc(-c2ccccc2)c(C(=O)c2ccccc2)s1)c1ccco1', 'UniProt P25099', 'Fulfilled'),
  ('CNc1nc(-c2ccccc2)c(C(=O)c2ccc(OC)cc2)s1', 'UniProt P25099', 'Not fulfilled'),
  ('CCOC(=O)Nc1nc(-c2ccccc2)c(C(=O)c2ccc(OC)cc2)s1', 'UniProt P25099', 'Not fulfilled'),
  ('CS(=O)(=O)c1ccc(C(=O)c2sc(Nc3ccccc3)nc2-c2ccccc2)cc1', 'UniProt P25099', 'Not fulfilled'),
  ('Cc1ccc(C(=O)Nc2nc(-c3ccccc3)c(C(=O)c3ccccc3)s2)cc1', 'UniProt P25099', 'Not fulfilled'),
  ('COc1ccc(C(=O)c2sc(NC(=O)c3ccccc3)nc2-c2ccccc2)cc1', 'UniProt P25099', 'Fulfilled'),
  ('CS(=O)(=O)c1ccc(C(=O)c2sc(NC(=O)c3ccccc3)nc2-c2ccccc2)cc1', 'UniProt P25099', 'Not fulfilled'),
  ('O=C(Nc1nc(-c2ccccc2)c(C(=O)c2ccc(Cl)cc2)s1)c1ccco1', 'UniProt P25099', 'Not fulfilled'),
  ('Cc1ccc(C(=O)Nc2nc(-c3ccccc3)c(C(=O)c3ccc(Cl)cc3)s2)cc1', 'UniProt P25099', 'Not fulfilled'),
  ('O=C(Nc1nc(-c2ccccc2)c(C(=O)c2ccccc2)s1)c1ccccc1', 'UniProt P25099', 'Fulfilled'),
  ('CCOC(=O)Nc1nc(-c2ccccc2)c(C(=O)c2ccc(Cl)cc2)s1', 'UniProt P25099', 'Not fulfilled'),
  ('CNc1nc(-c2ccccc2)c(C(=O)c2ccccc2)s1', 'UniProt P25099', 'Not fulfilled'),
  ('O=C(c1ccccc1)c1sc(Nc2ccccc2)nc1-c1ccccc1', 'UniProt P25099', 'Not fulfilled');

Where do the numbers come from? From ChEMBL document CHEMBL1157642.
